test system: human lung cancer cell line H1299; experiment: Caspase cascade activation (24 h assay) in H1299 cells; format: cell-based; settings: NCI-H1299, 24 h assay (Table II), read-out: Caspase Activation Potency EC50 (24 h) H1299
Listed next: entries and their corresponding EC50.
measurement.label: EC50 (nM)

>>> observed_measurement("COc1ccc(OC)c(Nc2nc(SC)nc3c2CCC3)c1")
934
>>> observed_measurement("COc1ccc(N(C)c2nc(SC)nc3c2CCC3)cc1")
43

----------
system: HCT116 cells; assay: Inhibition of cell proliferation (GI50, CellTiter-Glo) in HCT116 cells; type: cell-based; conditions: Homo sapiens, HCT-116, 48 h, read-out: GI50 in Cancer Cells HCT116
measurement.label: GI50

>>> observed_measurement("COc1ccc(OC)c(Nc2nc(SC)nc3c2CCC3)c1 [Example 18]")
"> 10 µM"
>>> observed_measurement("COc1cc(Nc2nc([S+](C)[O-])nc3c2CCC3)cc(OC)c1 (centres unmarked) [Example 27]")
"> 10 µM"
>>> observed_measurement("COc1cc(Nc2ncnc3c2CCC3)cc(OC)c1 [Example 24]")
"> 10 µM"
>>> observed_measurement("COc1ccc(OC)c(Nc2ncnc3c2CCC3)c1 [Example 25]")
"> 10 µM"
>>> observed_measurement("COc1cc(Nc2nc(SC)nc3c2COC3)cc(OC)c1 [Example 7]")
"3 µM"
